Measured combination Emax values are reported for all entries that follow.
Test system: HSC-39 (Gastric Carcinoma)
Experiment: combination Emax (second highest fraction inhibited in the dose matrix, 72 h); higher = more inhibition; extreme values may be limits of the assay

CN(CCO)CC[C@H](CSc1ccccc1)Nc1ccc(S(=O)(=O)NC(=O)c2ccc(N3CCC([C@@H](O)c4ccccc4-c4ccc(Cl)cc4)CC3)cc2)cc1S(=O)(=O)C(F)(F)F [AZD4320] + CCN(CCO)CCCOc1ccc2c(Nc3cc(CC(=O)Nc4cccc(F)c4)[nH]n3)ncnc2c1 [AZD2811] (first compound max 1 µM, 7x7, partner max 1 µM) | 0.966

QUERY: Checklist item: combination Emax tested on HSC-39 (Gastric Carcinoma), entry CC(=O)Nc1cccc(-n2c(=O)n(C3CC3)c(=O)c3c(Nc4ccc(I)cc4F)n(C)c(=O)c(C)c32)c1 [Trametinib] + Cc1nc(-c2cn3c(n2)-c2ccc(-c4cnn(C(C)(C)C(N)=O)c4)cc2OCC3)n(C(C)C)n1 [Taselisib] (first compound max 1 µM, 7x7, partner max 10 µM) , value?
RESULT: 1

QUERY: For Cc1c2c(nn1C)CSCc1cc(n(C)n1)CSc1cc(c3ccccc3c1)OCCCc1c(C(=O)O)n(C)c3c-2c(Cl)ccc13 [AZD5991] + Cn1cnc2c(F)c(Nc3ccc(Br)cc3Cl)c(C(=O)NOCCO)cc21 [Selumetinib] (first compound max 1 µM, 7x7, partner max 3 µM) then?
RESULT: 1

* * *

Tested on: REH (B-Lymphoblastic Leukemia)
Assay: Bliss excess, mean over the matrix (fraction); higher = more synergy
ATTRIBUTE_MEASURED: Bliss excess
Number, no unit, nothing else.

QUERY: Name the reported Bliss excess value associated with the molecule C=CCn1c(=O)c2cnc(Nc3ccc(N4CCN(C)CC4)cc3)nc2n1-c1cccc(C(C)(C)O)n1 [AZD1775] + C[C@@H]1COCCN1C2=NC(=NC(=C2)C3(CC3)[S@](=N)(=O)C)C4=C5C=CNC5=NC=C4 [AZD6738] (first compound max 1 µM, partner max 10 µM)
RESULT: 0.0406

QUERY: For Cc1c2c(nn1C)CSCc1cc(n(C)n1)CSc1cc(c3ccccc3c1)OCCCc1c(C(=O)O)n(C)c3c-2c(Cl)ccc13 [AZD5991] + CS(=O)(=O)CCNCc1ccc(-c2ccc3ncnc(Nc4ccc(OCc5cccc(F)c5)c(Cl)c4)c3c2)o1 [Lapatinib] (first compound max 1 µM, 7x7, partner max 10 µM) then?
RESULT: -0.038

QUERY: For COc1cc2ncnc(Nc3ccc(F)c(Cl)c3)c2cc1OCCCN1CCOCC1 [Gefitinib] + CC(C)n1c(=O)n(C)c2cnc3cc(F)c(-c4ccc(OCCCN5CCCCC5)nc4)cc3c21 [AZD1390] (first compound max 10 µM, 7x7, partner max 0.3 µM) then?
RESULT: -0.0498

* * *

Tested on: NB12 (Neuroblastoma)
Assay: combination Emax (second highest fraction inhibited in the dose matrix, 72 h); higher = more inhibition; extreme values may be limits of the assay
ATTRIBUTE_MEASURED: combination Emax
Number, no unit, nothing else.

# annotated cases, reported combination Emax shown
C[C@@H](Nc1cc(F)cc(F)c1)c1cc(C(=O)N(C)C)cc2c(=O)cc(N3CCOCC3)oc12 [AZD8186] + C1CN(CCC1(C(=O)N[C@@H](CCO)C2=CC=C(C=C2)Cl)N)C3=NC=NC4=C3C=CN4 [AZD5363] (first compound max 10 µM, 7x7, partner max 10 µM) | 0.419
O=C(c1cc(Cc2n[nH]c(=O)c3ccccc23)ccc1F)N1CCN(C(=O)C2CC2)CC1 [Olaparib] + Cc1c2c(nn1C)CSCc1cc(n(C)n1)CSc1cc(c3ccccc3c1)OCCCc1c(C(=O)O)n(C)c3c-2c(Cl)ccc13 [AZD5991] (first compound max 10 µM, 7x7, partner max 1 µM) | 0.379
Cn1cnc2c(F)c(Nc3ccc(Br)cc3Cl)c(C(=O)NOCCO)cc21 [Selumetinib] + C=CCn1c(=O)c2cnc(Nc3ccc(N4CCN(C)CC4)cc3)nc2n1-c1cccc(C(C)(C)O)n1 [AZD1775] (first compound max 10 µM, partner max 1 µM) | 0.674

// next item, combination Emax requested
QUERY: Name the reported combination Emax value associated with the compound CC(=O)c1c(C)c2cnc(Nc3ccc(N4CCNCC4)cn3)nc2n(C2CCCC2)c1=O [Palbociclib] + CC1(C)CCC(CN2CCN(c3ccc(C(=O)NS(=O)(=O)c4ccc(NCC5CCOCC5)c([N+](=O)[O-])c4)c(Oc4cnc5[nH]ccc5c4)c3)CC2)=C(c2ccc(Cl)cc2)C1 [Venetoclax] (first compound max 10 µM, 7x7, partner max 1 µM)
RESULT: 0.614

* * *

Test system: NB12 (Neuroblastoma)
Test: Bliss excess, mean over the matrix (fraction); higher = more synergy
ATTRIBUTE_MEASURED: Bliss excess
Number, no unit, nothing else.

# annotated cases, reported Bliss excess shown
C[C@@H](c1ccc2nccn2c1)n1nnc2ncc(-c3cnn(C)c3)nc21 [Savolitinib] + CC1(C)CCC(CN2CCN(c3ccc(C(=O)NS(=O)(=O)c4ccc(NCC5CCOCC5)c([N+](=O)[O-])c4)c(Oc4cnc5[nH]ccc5c4)c3)CC2)=C(c2ccc(Cl)cc2)C1 [Venetoclax] (first compound max 1 µM, 7x7, partner max 1 µM) | -0.0062
Cn1cnc2c(F)c(Nc3ccc(Br)cc3Cl)c(C(=O)NOCCO)cc21 [Selumetinib] + C[C@@H]1COCCN1C2=NC(=NC(=C2)C3(CC3)[S@](=N)(=O)C)C4=C5C=CNC5=NC=C4 [AZD6738] (first compound max 10 µM, 7x7, partner max 10 µM) | -0.0545
Cc1c2c(nn1C)CSCc1cc(n(C)n1)CSc1cc(c3ccccc3c1)OCCCc1c(C(=O)O)n(C)c3c-2c(Cl)ccc13 [AZD5991] + Nc1ccn([C@@H]2O[C@H](CO)[C@@H](O)C2(F)F)c(=O)n1 [Gemcitabine] (first compound max 1 µM, 7x7, partner max 0.3 µM) | 0.0008
CN(C)CCCOc1ccc(-c2ccc3ncc4c(c3c2)n(C2CCOCC2)c(=O)n4C)cn1 [AZD0156] + O=C(c1cc(Cc2n[nH]c(=O)c3ccccc23)ccc1F)N1CCN(C(=O)C2CC2)CC1 [Olaparib] (first compound max 3 µM, partner max 3 µM) | 0.0534

QUERY: Name the reported Bliss excess value associated with the molecule C[C@@H](Nc1cc(F)cc(F)c1)c1cc(C(=O)N(C)C)cc2c(=O)cc(N3CCOCC3)oc12 [AZD8186] + C1CN(CCC1(C(=O)N[C@@H](CCO)C2=CC=C(C=C2)Cl)N)C3=NC=NC4=C3C=CN4 [AZD5363] (first compound max 10 µM, 7x7, partner max 10 µM)
RESULT: -0.0305

* * *

Measured combination Emax values are reported for all entries that follow.
System: SK-PN-DW (Other Solid Carcinomas)
Assay: combination Emax (second highest fraction inhibited in the dose matrix, 72 h); higher = more inhibition; extreme values may be limits of the assay
Number, no unit, nothing else.

CC1(C)CCC(CN2CCN(c3ccc(C(=O)NS(=O)(=O)c4ccc(NCC5CCOCC5)c([N+](=O)[O-])c4)c(Oc4cnc5[nH]ccc5c4)c3)CC2)=C(c2ccc(Cl)cc2)C1 [Venetoclax] + C[C@@H](Nc1cc(F)cc(F)c1)c1cc(C(=O)N(C)C)cc2c(=O)cc(N3CCOCC3)oc12 [AZD8186] (first compound max 1 µM, 7x7, partner max 3 µM) | 0.862

QUERY: Name the reported combination Emax value associated with the compound Cc1c2c(nn1C)CSCc1cc(n(C)n1)CSc1cc(c3ccccc3c1)OCCCc1c(C(=O)O)n(C)c3c-2c(Cl)ccc13 [AZD5991] + CC1(C)CCC(CN2CCN(c3ccc(C(=O)NS(=O)(=O)c4ccc(NCC5CCOCC5)c([N+](=O)[O-])c4)c(Oc4cnc5[nH]ccc5c4)c3)CC2)=C(c2ccc(Cl)cc2)C1 [Venetoclax] (first compound max 1 µM, 7x7, partner max 1 µM)
RESULT: 0.929

QUERY: For Cc1c2c(nn1C)CSCc1cc(n(C)n1)CSc1cc(c3ccccc3c1)OCCCc1c(C(=O)O)n(C)c3c-2c(Cl)ccc13 [AZD5991] + C=CCn1c(=O)c2cnc(Nc3ccc(N4CCN(C)CC4)cc3)nc2n1-c1cccc(C(C)(C)O)n1 [AZD1775] (first compound max 1 µM, partner max 1 µM) then?
RESULT: 0.962

* * *

System: NCI-H446 (Small Cell Lung Carcinoma)
Assay: Bliss excess, mean over the matrix (fraction); higher = more synergy
Measured Bliss excess values are reported for all entries that follow.
Number, no unit, nothing else.

CN(C)CCCOc1ccc(-c2ccc3ncc4c(c3c2)n(C2CCOCC2)c(=O)n4C)cn1 [AZD0156] + C[C@@H]1COCCN1C2=NC(=NC(=C2)C3(CC3)[S@](=N)(=O)C)C4=C5C=CNC5=NC=C4 [AZD6738] (first compound max 1 µM, 7x7, partner max 10 µM) | 0.0625

QUERY: Name the reported Bliss excess value associated with the compound CN(CCO)CC[C@H](CSc1ccccc1)Nc1ccc(S(=O)(=O)NC(=O)c2ccc(N3CCC([C@@H](O)c4ccccc4-c4ccc(Cl)cc4)CC3)cc2)cc1S(=O)(=O)C(F)(F)F [AZD4320] + Cn1cnc2c(F)c(Nc3ccc(Br)cc3Cl)c(C(=O)NOCCO)cc21 [Selumetinib] (first compound max 1 µM, 7x7, partner max 3 µM)
RESULT: -0.0039

Source: the supplement of paper PMC11061612
